Catalogue of compounds with associated IC50
Biological target: XIAP BIR3 (His-BIR3 (241-356, XIAP)) (Homo sapiens (Human))
Sequence (P98170 whole entry, looked up): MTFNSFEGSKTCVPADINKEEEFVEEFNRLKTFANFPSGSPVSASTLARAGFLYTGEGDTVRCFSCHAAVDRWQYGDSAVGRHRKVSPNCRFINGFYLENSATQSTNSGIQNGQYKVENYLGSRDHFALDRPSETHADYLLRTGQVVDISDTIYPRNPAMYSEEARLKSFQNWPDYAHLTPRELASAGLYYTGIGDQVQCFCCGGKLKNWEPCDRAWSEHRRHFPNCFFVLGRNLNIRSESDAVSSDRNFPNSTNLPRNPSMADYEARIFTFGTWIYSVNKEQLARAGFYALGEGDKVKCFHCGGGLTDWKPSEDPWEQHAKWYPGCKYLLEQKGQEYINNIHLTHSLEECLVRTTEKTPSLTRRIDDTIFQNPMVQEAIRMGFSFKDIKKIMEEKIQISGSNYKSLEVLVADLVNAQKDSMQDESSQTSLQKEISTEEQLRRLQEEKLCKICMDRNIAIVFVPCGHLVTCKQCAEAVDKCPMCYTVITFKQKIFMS
Express it in nM; write the number only.

smi | unitString | IC50
CN[C@@H](C)C(=O)N[C@H](C(=O)N1C[C@@H](NC(=O)c2ccc(CN(C(=O)[C@@H]3C[Si](C)(C)CN3C(=O)[C@@H](NC(=O)[C@H](C)NC)C(C)(C)C)[C@H](C)c3ccccc3F)cc2)C[C@H]1C(=O)N[C@@H]1CCCc2ccccc21)C(C)(C)C | nM | 52

compound CN[C@@H](C)C(=O)N[C@@H](Cc1ccc(NC(=O)N[C@H]2C[C@@H](C(=O)N[C@@H]3CCCc4ccccc43)N(C(=O)[C@@H](NC(=O)[C@H](C)NC)C(C)(C)C)C2)cc1)C(=O)N1C[Si](C)(C)C[C@H]1C(=O)N[C@@H]1CCCc2ccccc21 , IC50 observed: 16

* * *

# XIAP BIR3 (His-BIR3 (241-356, XIAP)) (Homo sapiens (Human)): IC50 values follow
Express it in µM; write the number only.

Here are 4 compounds together with their reported answers.
compound | experimentalResult
CN[C@@H](C)C(=O)N[C@@H](Cc1ccc(CCc2ccc(C(=O)N[C@H]3C[C@@H](C(=O)N[C@@H]4CCCc5ccccc54)N(C(=O)[C@@H](NC(=O)[C@H](C)NC)C(C)(C)C)C3)cc2)cc1)C(=O)N1C[Si](C)(C)C[C@H]1C(=O)N[C@@H]1CCCc2ccccc21 | 0.084
CN[C@@H](C)C(=O)N[C@@H](Cc1ccc(C(=O)N[C@H]2C[C@@H](C(=O)N[C@@H]3CCCc4ccccc43)N(C(=O)[C@@H](NC(=O)[C@H](C)NC)C(C)(C)C)C2)cc1)C(=O)N1C[Si](C)(C)C[C@H]1C(=O)N[C@@H]1CCCc2ccccc21 | 0.008
CN[C@@H](C)C(=O)N[C@@H](Cc1ccc(C#Cc2ccc(C(=O)N[C@H]3C[C@@H](C(=O)N[C@@H]4CCCc5ccccc54)N(C(=O)[C@@H](NC(=O)[C@H](C)NC)C(C)(C)C)C3)cc2)cc1)C(=O)N1C[Si](C)(C)C[C@H]1C(=O)N[C@@H]1CCCc2ccccc21 | 0.103
CN[C@@H](C)C(=O)NC(Cc1ccc(NC(=O)c2ccc(C(=O)N[C@H]3C[C@@H](C(=O)NC4CCCc5ccccc54)N(C(=O)[C@@H](NC(=O)[C@H](C)NC)C(C)(C)C)C3)cc2)cc1)C(=O)N1C[Si](C)(C)C[C@H]1C(=O)NC1CCCc2ccccc21 (some centres unmarked) | 0.012

Switching to the query record.
Input CN[C@@H](C)C(=O)NC(Cc1ccc(NC(=O)c2ccc(CO[C@H]3C[C@@H](C(=O)NC4CCCc5ccccc54)N(C(=O)[C@@H](NC(=O)[C@H](C)NC)C(C)(C)C)C3)cc2)cc1)C(=O)N1C[Si](C)(C)C[C@H]1C(=O)NC1CCCc2ccccc21 (some centres unmarked) . Output IC50: 0.014

* * *

The following compounds have recorded IC50 on XIAP BIR3 (His-BIR3 (241-356, XIAP)) (Homo sapiens (Human)).
Enter your answer as a number in nM; do not include the unit.

compound | assaySystem | IC50 (nM)
CN[C@@H](C)C(=O)N[C@@H](Cc1ccc(C#CC(=O)N[C@H]2C[C@@H](C(=O)N[C@@H]3CCCc4ccccc43)N(C(=O)[C@@H](NC(=O)[C@H](C)NC)C(C)(C)C)C2)cc1)C(=O)N1C[Si](C)(C)C[C@H]1C(=O)N[C@@H]1CCCc2ccccc21 | XIAP BIR3 (His-BIR3 (241-356, XIAP)) (Homo sapiens (Human)) | 3

Measured IC50 of CN[C@@H](C)C(=O)NC(Cc1ccc(-c2ccc(C(=O)NC3C[C@@H](C(=O)NC4CCCc5ccccc54)N(C(=O)[C@@H](NC(=O)[C@H](C)NC)C(C)(C)C)C3)cc2)cc1)C(=O)N1C[Si](C)(C)C[C@H]1C(=O)NC1CCCc2ccccc21 (stereo partly shown) : 93

Field IC50 (entry CC[C@H](NC)C(=O)N[C@@H](Cc1ccc(NC(=O)c2ccc(C(=O)N[C@H]3C[C@@H](C(=O)N[C@@H]4CCCc5ccccc54)N(C(=O)[C@@H](NC(=O)[C@H](C)NC)C(C)(C)C)C3)cc2)cc1)C(=O)N1C[Si](C)(C)C[C@H]1C(=O)N[C@@H]1CCCc2ccccc21 ) reads 30

Reported IC50 of CN[C@@H](C)C(=O)NC(Cc1ccc(C(=O)Nc2ccc(C(=O)N[C@H]3C[C@@H](C(=O)NC4CCCc5ccccc54)N(C(=O)[C@@H](NC(=O)[C@H](C)NC)C(C)(C)C)C3)cc2)cc1)C(=O)N1C[Si](C)(C)C[C@H]1C(=O)NC1CCCc2ccccc21 (stereo partly shown) : 14

Recorded values, source patent US9345740B2.
